# Assayed Target: T1, corticotropin-releasing hormone (CRH) peptide (human and mouse (same sequence), not fully specified)
# T1 peptide: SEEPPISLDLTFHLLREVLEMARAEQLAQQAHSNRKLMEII
# Assay Text: cell-based or functional assay
Doc: threshold 0.2 nM (exclusive). Items with hCRHR1 Luciferase Reporter Assay IC50 beneath it return 1; others return 0.

Query block: Say whether its hCRHR1 Luciferase Reporter Assay IC50 is strictly beneath 0.2 nM. Entry: PR302341-17 (antibody, human IgG1, kappa, V domains shown) VH: QVQLVQSGAEVKKPGASVKVSCKASGYTFTDYFMKWVRQAPGQGLEWMGVINPNNGDIFYNQKFKGRVTMTRDTSISTAYMELSRLRSDDTAVYYCARGTDRALFAYWGQGTLVTVSS VL: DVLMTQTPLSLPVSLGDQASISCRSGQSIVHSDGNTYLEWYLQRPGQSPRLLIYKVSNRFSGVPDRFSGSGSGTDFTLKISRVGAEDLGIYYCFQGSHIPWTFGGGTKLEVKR
Result block: 1

Query block: Say whether its hCRHR1 Luciferase Reporter Assay IC50 is strictly beneath 0.2 nM. Entry: PR302341-5 (antibody, human IgG1, kappa, V domains shown) VH: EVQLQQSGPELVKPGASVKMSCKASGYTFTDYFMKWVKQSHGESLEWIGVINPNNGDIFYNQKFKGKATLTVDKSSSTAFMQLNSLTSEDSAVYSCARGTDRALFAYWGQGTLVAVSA VL: DIVMTQTPLSLSVTPGQPASISCRSGQSIVHSDGNTYLEWYLQKPGQSPQLLIYKVSNRFSGVPDRFSGSGSGTDFTLKISRVEAEDVGVYYCFQGSHIPWTFGGGTKVEIKR
Result block: 0

Query block: Say whether its hCRHR1 Luciferase Reporter Assay IC50 is strictly beneath 0.2 nM. Entry: PR302341-22 (antibody, human IgG1, kappa, V domains shown) VH: QVQLVQSGAEVKKPGASVKVSCKASGYTFTDYFMKWVRQAPGQGLEWMGVINPNNGDIFYNQKFKGRVTMTRDTSISTAYMELSRLRSDDTAVYYCARGTDRALFAYWGQGTLVTVSS VL: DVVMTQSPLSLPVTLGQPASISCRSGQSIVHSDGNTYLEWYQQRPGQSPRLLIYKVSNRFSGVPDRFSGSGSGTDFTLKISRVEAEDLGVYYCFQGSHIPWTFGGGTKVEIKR
Result block: 0

Query block: Say whether its hCRHR1 Luciferase Reporter Assay IC50 is strictly beneath 0.2 nM. Entry: PR302341-11 (antibody, human IgG1, kappa, V domains shown) VH: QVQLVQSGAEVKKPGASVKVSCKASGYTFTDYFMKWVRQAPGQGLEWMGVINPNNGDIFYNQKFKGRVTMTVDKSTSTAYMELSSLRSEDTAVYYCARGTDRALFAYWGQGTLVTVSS VL: DIVMTQTPLSLSVTPGQPASISCRSGQSIVHSDGNTYLEWYLQKPGQSPQLLIYKVSNRFSGVPDRFSGSGSGTDFTLKISRVEAEDVGVYYCFQGSHIPWTFGGGTKVEIKR
Result block: 0

Query block: Say whether its hCRHR1 Luciferase Reporter Assay IC50 is strictly beneath 0.2 nM. Entry: PR302341-6 (antibody, human IgG1, kappa, V domains shown) VH: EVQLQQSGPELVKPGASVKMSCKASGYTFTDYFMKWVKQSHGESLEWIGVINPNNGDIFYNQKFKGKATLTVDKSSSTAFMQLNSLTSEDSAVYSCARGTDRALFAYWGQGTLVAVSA VL: DVVMTQTPLSLSVTPGQPASISCRSGQSIVHSDGNTYLEWYLQKPGQSPQLLIYKVSNRFSGVPDRFSGSGSGTDFTLKISRVEAEDLGVYYCFQGSHIPWTFGGGTKVEIKR
Result block: 0

Query block: Say whether its hCRHR1 Luciferase Reporter Assay IC50 is strictly beneath 0.2 nM. Entry: PR302341-3 (antibody, human IgG1, kappa, V domains shown) VH: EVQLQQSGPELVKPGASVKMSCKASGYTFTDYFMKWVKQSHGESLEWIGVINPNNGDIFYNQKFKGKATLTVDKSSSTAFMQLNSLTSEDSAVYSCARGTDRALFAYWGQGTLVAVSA VL: DIVMTQTPLSSPVTLGQPASISCRSGQSIVHSDGNTYLEWLQQRPGQPPRLLIYKVSNRFSGVPDRFSGSGAGTDFTLKISRVEAEDVGVYYCFQGSHIPWTFGGGTKVEIKR
Result block: 1

Query block: Say whether its hCRHR1 Luciferase Reporter Assay IC50 is strictly beneath 0.2 nM. Entry: PR302341-12 (antibody, human IgG1, kappa, V domains shown) VH: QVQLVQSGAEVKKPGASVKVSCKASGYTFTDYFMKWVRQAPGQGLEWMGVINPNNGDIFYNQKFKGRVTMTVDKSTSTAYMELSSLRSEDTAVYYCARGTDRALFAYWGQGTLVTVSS VL: DVVMTQTPLSLSVTPGQPASISCRSGQSIVHSDGNTYLEWYLQKPGQSPQLLIYKVSNRFSGVPDRFSGSGSGTDFTLKISRVEAEDLGVYYCFQGSHIPWTFGGGTKVEIKR
Result block: 0

Query block: Say whether its hCRHR1 Luciferase Reporter Assay IC50 is strictly beneath 0.2 nM. Entry: PR302341-8 (antibody, human IgG1, kappa, V domains shown) VH: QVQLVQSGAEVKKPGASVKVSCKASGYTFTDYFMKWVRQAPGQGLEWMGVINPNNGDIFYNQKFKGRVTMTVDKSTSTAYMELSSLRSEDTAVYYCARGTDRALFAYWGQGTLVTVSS VL: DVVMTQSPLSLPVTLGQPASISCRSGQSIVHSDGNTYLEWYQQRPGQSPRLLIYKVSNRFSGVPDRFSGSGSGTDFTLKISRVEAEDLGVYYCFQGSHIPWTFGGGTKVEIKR
Result block: 1
